Target: T1, human ROR1 on the surface of tumor cells (human, UniProt Q01973 30-937)
T1 construct: whole, on cells; also called ROR1 on the cell surface; tumor cell ROR1
T1 sequence (Q01973 30-937): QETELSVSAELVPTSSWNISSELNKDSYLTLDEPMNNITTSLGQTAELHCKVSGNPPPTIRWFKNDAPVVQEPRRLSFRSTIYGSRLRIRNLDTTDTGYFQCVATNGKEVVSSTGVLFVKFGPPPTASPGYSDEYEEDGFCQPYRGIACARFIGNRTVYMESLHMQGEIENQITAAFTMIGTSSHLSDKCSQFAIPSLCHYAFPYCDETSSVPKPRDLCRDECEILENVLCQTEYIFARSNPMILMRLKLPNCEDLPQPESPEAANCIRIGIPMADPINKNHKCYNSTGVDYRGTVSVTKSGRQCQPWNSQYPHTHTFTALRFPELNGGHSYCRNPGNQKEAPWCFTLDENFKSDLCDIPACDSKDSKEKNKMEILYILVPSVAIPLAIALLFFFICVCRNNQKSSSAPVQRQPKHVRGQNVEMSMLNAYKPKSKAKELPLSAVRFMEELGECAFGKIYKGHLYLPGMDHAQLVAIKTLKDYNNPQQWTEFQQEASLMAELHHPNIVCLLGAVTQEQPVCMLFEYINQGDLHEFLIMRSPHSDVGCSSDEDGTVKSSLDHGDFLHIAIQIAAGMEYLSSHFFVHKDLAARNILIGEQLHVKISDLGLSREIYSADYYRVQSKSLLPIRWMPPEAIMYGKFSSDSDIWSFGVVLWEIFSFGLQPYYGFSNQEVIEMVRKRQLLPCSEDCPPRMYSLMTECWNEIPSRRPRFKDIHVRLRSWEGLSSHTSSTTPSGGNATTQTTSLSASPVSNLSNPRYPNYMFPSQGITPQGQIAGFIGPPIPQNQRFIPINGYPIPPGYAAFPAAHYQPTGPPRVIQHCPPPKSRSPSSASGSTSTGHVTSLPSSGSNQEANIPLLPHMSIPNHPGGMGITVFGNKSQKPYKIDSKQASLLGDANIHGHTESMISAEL
Experiment: FACS, MDA-MB-231 cells

{"binder": "Hu001-15 (antibody, V domains shown, Humanized) VH: QVQLVQSGAEVKKPGASVKVSCKASGYTFTDYNLHWVKQAPGQGLEWIGYINPNHDATSYNQKFQGKATLTVDTSTSTAYMELSSLTSEDTAVYYCARRVRTGTGLDDWGQGTTVTVSS VL: DVVMTQSPLSLPVTLGQPASISCRSSHNIVHTNANTYLEWYQQRPGQSPKLLIYKVSNRFSGVPDRFSGSGSGTDFTLKISRVEAEDVGVYYCFQGSRFPYTFGGGTKVEIK", "binding result": "binds"}
{"binder": "Hu001-14 (antibody, V domains shown, Humanized) VH: QVQLVQSGAEVKKPGASVKVSCKASGYTFTDYNLHWVKQAPGQGLEWIGYINPNHDATSYNQKFQGKATLTVDTSTSTAYMELSSLTSEDTAVYYCARRVRTGTGLDDWGQGTTVTVSS VL: DVVMTQSPLSLPVTLGQPASISCRSSHNIVHTNANTYLEWYQQRPGQSPRLLIYKVSNRFSGVPDRFSGSGSGTDFTLKISRVEAEDVGVYYCFQGSRFPYTFGGGTKVEIK", "binding result": "binds"}
